Hi there, I'd appreciate the recorded Total Peptic Activity for every entry that follows.
tested on: secretion of gastric juice; experiment: Inhibition of gastric juice secretion, pyloric ligation (method of Shay et al.); assay type: in vivo, Wistar male rats; details: 25 mg/kg, i.p.; 4 hours after pyloric ligation; casein as substrate
Numeric answer only, unit mg as tyrosine/ 100 g wt. assumed.

Q: Returns the measured Total Peptic Activity for the input molecule. Input: `CCCCCCCC=CC(=O)NCCSCC(N)=O`
Result: 81.5

Q: Item: CCCCCCCCC=CC(=O)O [2-Undecenoic acid, reference compound]
Result: 159.8

Q: Record: CCCCCCCCC=CC(=O)NCCSSCCNC(=O)C=CCCCCCCCC [Compound 1, [SCH2CH2NH-COCH=CH(CH2)7CH3]2]
Result: 139.9

Q: Same for `CCCCCCCCC=CC(=O)NCCSCC(N)=O`
Result: 70.9

###

test system: carrageenan paw edema; assay: Anti-inflammatory activity, carrageenan paw edema method; format: in vivo, SD male rats; settings: 25 mg/kg, i.p., 30 minutes before carrageenan; four hours after injection
For each of the compounds below, state its Percent inhibitaion.
Provide only the numeric value, understood in %.

Q: Quick one: Percent inhibitaion of CCCCCCCCCCC=CC(=O)NCCSCC(N)=O [Compound 8, NH2COCH2SCH2CH2NH-COCH=CH(CH2)9CH3] ?
Result: 49.6

Q: Now consider CCCCCC=CC(=O)NCCSCC(N)=O [Compound 4, NH2COCH2SCH2CH2NH-COCH=CH(CH2)4CH3] and answer again.
Result: 45.2

Q: Moving on to CCCCCC=CC(=O)NCCSSCCNC(=O)C=CCCCCC [Compound 3, [SCH2CH2NH-COCH=CH(CH2)4CH3]2]
Result: 29.7

Q: // next record CCCCCCCCCCC=CC(=O)NCCSSCCNC(=O)C=CCCCCCCCCCC [Compound 7, [SCH2CH2NH-COCH=CH(CH2)9CH3]2]
Result: 30.7
